assay: compounds altering HSF1 focus formation in cells – imaging, Selleck Cancer Library (AID 1347162); settings: human cells, HSF1 nuclear foci imaging, at 10 µM
Active and inactive are the calls of the source. No stated cut-off is given here; in the data, active means plate-normalised HSF1 focus index below about 0.46; inactive means the rest.
Please state which outcome applies, choosing from yes (1) for active, no (0) for inactive

Previously resolved entries follow.
Item smiles: Nc1ccc2ncnc(NCCc3ccc(Oc4ccccc4)cc3)c2c1
Classification: no (0)

Item smiles: c1ccc2c(-c3cnn4cc(-c5ccc(N6CCNCC6)cc5)cnc34)ccnc2c1
Classification: yes (1)

Look up the recorded call for COc1ccc(CNC(=O)Nc2ncc([N+](=O)[O-])s2)cc1 in this test.
no (0)

Look up the recorded call for CO[C@H]1C[C@@H]2CC[C@@H](C)[C@@](O)(O2)C(=O)C(=O)N2CCCC[C@H]2C(=O)O[C@H]([C@H](C)C[C@@H]2CC[C@@H](O)[C@H](OC)C2)CC(=O)[C@H](C)/C=C(\C)[C@@H](O)[C@@H](OC)C(=O)[C@H](C)C[C@H](C)/C=C/C=C/C=C/1C in this test.
no (0)
